Target: CDK9 (Homo sapiens)
Construct: endogenous in cells; host or cells: MDA-MB-231
Sequence (P50750 whole entry): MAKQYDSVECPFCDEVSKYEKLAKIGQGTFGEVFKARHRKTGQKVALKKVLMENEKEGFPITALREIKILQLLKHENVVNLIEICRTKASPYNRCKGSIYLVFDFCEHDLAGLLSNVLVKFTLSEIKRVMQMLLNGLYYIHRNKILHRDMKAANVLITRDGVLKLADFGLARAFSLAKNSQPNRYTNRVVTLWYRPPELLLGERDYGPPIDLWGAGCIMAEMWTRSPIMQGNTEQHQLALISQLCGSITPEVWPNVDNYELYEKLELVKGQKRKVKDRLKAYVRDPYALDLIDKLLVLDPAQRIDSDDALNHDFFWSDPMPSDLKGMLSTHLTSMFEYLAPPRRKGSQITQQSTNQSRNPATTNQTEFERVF
Test: CDK protein degradation activity (Western blotting), CDK9
Assay type: cell-based
Settings: MDA-MB-231 cells, 10 μM, 16 hours, Western blot
MEASURED_QUANTITY: Enzyme degradation CDK9 (% remaining) @ 10 μM (%)

COMPOUND	NUMERIC_READOUT
O=C1CC[C@H](N2C(=O)c3cc(F)c(N4CCN(CC5CCN(c6ccc(Nc7ncnc8c7ncn8C7CC(NC(=O)c8c(Cl)cccc8Cl)C7)cc6)CC5)CC4)cc3C2=O)C(=O)N1 (some centres unmarked)	0
O=C1CC[C@H](N2C(=O)c3ccc(N4CCC5(CC4)CC(N4CCC(c6ccc(Nc7ncnc8c7ncn8[C@H]7C[C@@H](NC(=O)Cc8ccccc8)C7)cc6)CC4)C5)cc3C2=O)C(=O)N1	0
